Target: Artificial Cell Surface (ACS): biotinylated cell surface proteins of PBMCs bound to streptavidin columns
Assay: trypsin-digested dHSA adsorbed on ACS column, MALDI-TOF ms
Please use True for Percent Absorbed under 20% and False for everything else, ties included.

These recorded examples may help you get a feel for the data.
1) AVMDDFAAFVEK
False
2) YICENQDSISSK
True
3) CCAAADPHECYAK
False
4) KYLYEIAR [albumin fragment KYLYEIAR]
False

Task: Hi there! Is Percent Absorbed for NECFLQHK [albumin fragment NECFLQHK] below 20%, do you know?
Output: False
